# Measured on: microsomal Ca2+-ATPase (SERCA)
# Construct: native enzyme in microsomal membranes isolated from SH-SY5Y cells
# Method: Ca2+-dependent ATP hydrolysis (phosphate liberation assay) in SH-SY5Y microsomes
Readout name: Ki (µM)
Return type: number; implicit unit µM.

The following molecules have reported results that may help.
[
  {
    "Molecule": "CC(C)(c1cc(Br)c(O)c(Br)c1)c1cc(Br)c(O)c(Br)c1 [Tetrabromobisphenol-A]",
    "Unit annotation": "µM",
    "Meas value": 9
  },
  {
    "Molecule": "Brc1c(Br)c(Br)c(Oc2c(Br)c(Br)c(Br)c(Br)c2Br)c(Br)c1Br [decabromodiphenyl ether]",
    "Unit annotation": "µM",
    "Meas value": 41
  }
]

Challenge: Query for microsomal Ca2+-ATPase (SERCA): what Ki does the record show for BrC1CCC(Br)C(Br)CCC(Br)C(Br)CCC1Br (stereo not drawn) [hexabromocyclododecane] ?
Response given: 3.5
